System: HeLa Kyoto;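 further: synchronized HeLa Kyoto cells, proteins quantified by TMT10plex mass spectrometry, three biological replicates, mitosis taken 0.5 h after nocodazole release, G1/S directly after double thymidine block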
procedure_summary: thermal stability score vs G1/S (z-score of summed log2 fold changes over temperatures); higher = more thermally stable than in G1/S
setup_conditions: cell cycle stage: early G1 (4.5 h after nocodazole release)
outcome_measure: thermal stability score
Just the number.

Briefly, thermal stability score measured for MATGQKLMRAVRVFEFGGPEVLKLRSDIAVPIPKDHQVLIKVHACGVNPVETYIRSGTYSRKPLLPYTPGSDVAGVIEAVGDNASAFKKGDRVFTSSTISGGYAEYALAADHTVYKLPEKLDFKQGAAIGIPYFTAYRALIHSACVKAGESVLVHGASGGVGLAACQIARAYGLKILGTAGTEEGQKIVLQNGAHEVFNHREVNYIDKIKKYVGEKGIDIIIEMLANVNLSKDLSLLSHGGRVIVVGSRGTIEINPRDTMAKESSIIGVTLFSSTKEEFQQYAAALQAGMEIGWLKPVIGSQYPLEKVAEAHENIIHGSGATGKMILLL [CRYZ] : -0.614

Briefly, thermal stability score measured for MAQLGAVVAVASSFFCASLFSAVHKIEEGHIGVYYRGGALLTSTSGPGFHLMLPFITSYKSVQTTLQTDEVKNVPCGTSGGVMIYFDRIEVVNFLVPNAVYDIVKNYTADYDKALIFNKIHHELNQFCSVHTLQEVYIELFDQIDENLKLALQQDLTSMAPGLVIQAVRVTKPNIPEAIRRNYELMESEKTKLLIAAQKQKVVEKEAETERKKALIEAEKVAQVAEITYGQKVMEKETEKKISEIEDAAFLAREKAKADAECYTAMKIAEANKLKLTPEYLQLMKYKAIASNSKIYFGKDIPNMFMDSAGSVSKQFEGLADKLSFGLEDEPLETATKEN [ERLIN2] : 2.26

Briefly, thermal stability score measured for MGEPQGSMRILVTGGSGLVGKAIQKVVADGAGLPGEDWVFVSSKDADLTDTAQTRALFEKVQPTHVIHLAAMVGGLFRNIKYNLDFWRKNVHMNDNVLHSAFEVGARKVVSCLSTCIFPDKTTYPIDETMIHNGPPHNSNFGYSYAKRMIDVQNRAYFQQYGCTFTAVIPTNVFGPHDNFNIEDGHVLPGLIHKVHLAKSSGSALTVWGTGNPRRQFIYSLDLAQLFIWVLREYNEVEPIILSVGEEDEVSIKEAAEAVVEAMDFHGEVTFDTTKSDGQFKKTASNSKLRTYLPDFRFTPFKQAVKETCAWFTDNYEQARK [TSTA3] : -3.68

Briefly, thermal stability score measured for MARYEEVSVSGFEEFHRAVEQHNGKTIFAYFTGSKDAGGKSWCPDCVQAEPVVREGLKHISEGCVFIYCQVGEKPYWKDPNNDFRKNLKVTAVPTLLKYGTPQKLVESECLQANLVEMLFSED [TXNDC17] : 4.94

Briefly, thermal stability score measured for MFTSTGSSGLYKAPLSKSLLLVPSALSLLLALLLPHCQKLFVYDLHAVKNDFQIWRLICGRIICLDLKDTFCSSLLIYNFRIFERRYGSRKFASFLLGSWVLSALFDFLLIEAMQYFFGITAASNLPSGFLAPVFALFVPFYCSIPRVQVAQILGPLSITNKTLIYILGLQLFTSGSYIWIVAISGLMSGLCYDSKMFQVHQVLCIPSWMAKFFSWTLEPIFSSSEPTSEARIGMGATLDIQRQQRMELLDRQLMFSQFAQGRRQRQQQGGMINWNRLFPPLRQRQNVNYQGGRQSEPAAPPLEVSEEQVARLMEMGFSRGDALEALRASNNDLNVATNFLLQH [UBAC2] : 0.579

Briefly, thermal stability score measured for MGQIEWAMWANEQALASGLILITGGIVATAGRFTQWYFGAYSIVAGVFVCLLEYPRGKRKKGSTMERWGQKYMTAVVKLFGPFTRNYYVRAVLHLLLSVPAGFLLATILGTACLAIASGIYLLAAVRGEQWTPIEPKPRERPQIGGTIKQPPSNPPPRPPAEARKKPSEEEAAVAAGGPPGGPQVNPIPVTDEVV [CYBA] : -0.561

Briefly, thermal stability score measured for MKKSIGILSPGVALGMAGSAMSSKFFLVALAIFFSFAQVVIEANSWWSLGMNNPVQMSEVYIIGAQPLCSQLAGLSQGQKKLCHLYQDHMQYIGEGAKTGIKECQYQFRHRRWNCSTVDNTSVFGRVMQIGSRETAFTYAVSAAGVVNAMSRACREGELSTCGCSRAARPKDLPRDWLWGGCGDNIDYGYRFAKEFVDARERERIHAKGSYESARILMNLHNNEAGRRTVYNLADVACKCHGVSGSCSLKTCWLQLADFRKVGDALKEKYDSAAAMRLNSRGKLVQVNSRFNSPTTQDLVYIDPSPDYCVRNESTGSLGTQGRLCNKTSEGMDGCELMCCGRGYDQFKTVQTERCHCKFHWCCYVKCKKCTEIVDQFVCK [WNT5A] : -0.194

Briefly, thermal stability score measured for MAAPALGLVCGRCPELGLVLLLLLLSLLCGAAGSQEAGTGAGAGSLAGSCGCGTPQRPGAHGSSAAAHRYSREANAPGPVPGERQLAHSKMVPIPAGVFTMGTDDPQIKQDGEAPARRVTIDAFYMDAYEVSNTEFEKFVNSTGYLTEAEKFGDSFVFEGMLSEQVKTNIQQAVAAAPWWLPVKGANWRHPEGPDSTILHRPDHPVLHVSWNDAVAYCTWAGKRLPTEAEWEYSCRGGLHNRLFPWGNKLQPKGQHYANIWQGEFPVTNTGEDGFQGTAPVDAFPPNGYGLYNIVGNAWEWTSDWWTVHHSVEETLNPKGPPSGKDRVKKGGSYMCHRSYCYRYRCAARSQNTPDSSASNLGFRCAADRLPTMD [SUMF1] : -1.37

Briefly, thermal stability score measured for MALASVLERPLPVNQRGFFGLGGRADLLDLGPGSLSDGLSLAAPGWGVPEEPGIEMLHGTTTLAFKFRHGVIVAADSRATAGAYIASQTVKKVIEINPYLLGTMAGGAADCSFWERLLARQCRIYELRNKERISVAAASKLLANMVYQYKGMGLSMGTMICGWDKRGPGLYYVDSEGNRISGATFSVGSGSVYAYGVMDRGYSYDLEVEQAYDLARRAIYQATYRDAYSGGAVNLYHVREDGWIRVSSDNVADLHEKYSGSTP [PSMB5] : -2.01

Briefly, thermal stability score measured for MAAIPPDSWQPPNVYLETSMGIIVLELYWKHAPKTCKNFAELARRGYYNGTKFHRIIKDFMIQGGDPTGTGRGGASIYGKQFEDELHPDLKFTGAGILAMANAGPDTNGSQFFVTLAPTQWLDGKHTIFGRVCQGIGMVNRVGMVETNSQDRPVDDVKIIKAYPSG [PPIL1] : -0.554
